- tested_on: Fatty-acid amide hydrolase 1 (Homo sapiens, UniProt O00519)
- Sequence (O00519 whole entry): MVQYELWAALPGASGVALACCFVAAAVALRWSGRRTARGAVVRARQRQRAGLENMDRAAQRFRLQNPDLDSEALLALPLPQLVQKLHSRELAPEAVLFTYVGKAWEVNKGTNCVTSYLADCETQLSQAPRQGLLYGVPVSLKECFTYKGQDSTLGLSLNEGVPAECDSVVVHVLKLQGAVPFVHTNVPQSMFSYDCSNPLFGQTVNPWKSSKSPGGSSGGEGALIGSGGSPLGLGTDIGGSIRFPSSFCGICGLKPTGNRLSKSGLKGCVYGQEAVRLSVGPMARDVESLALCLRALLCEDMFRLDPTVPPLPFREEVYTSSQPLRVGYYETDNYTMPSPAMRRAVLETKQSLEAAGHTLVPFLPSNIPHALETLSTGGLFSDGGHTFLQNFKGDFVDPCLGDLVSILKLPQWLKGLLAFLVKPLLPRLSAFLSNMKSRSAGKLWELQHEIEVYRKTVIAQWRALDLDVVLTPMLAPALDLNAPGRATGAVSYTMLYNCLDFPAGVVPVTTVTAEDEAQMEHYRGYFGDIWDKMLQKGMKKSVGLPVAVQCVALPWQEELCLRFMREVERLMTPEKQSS
- test: Inhibition of His-tagged human FAAH N-terminal transmembrane-deleted truncated form expressed in Escherichia coli preincubated for 60 mins before oleamide substrate addition
measured_endpoint: IC50 (nM)
Give the value in nM but do not write nM after it.

// returns reported IC50 for input O=C(Nc1cccnn1)N1CCC(=Cc2cccc(Oc3ccc(C(F)(F)F)cn3)c2)CC1
7.2
